Tested on: MOLT-4 leukemia
Assay: NCI tumour cell line growth inhibition, 48 h
Experimental Readout: TGI

- Fc1ccc2c(c1)cc1ccc3cccc4ccc2c1c34: > 100 µM

Inquiry: Report TGI for CCOC(=O)C1=C(C)N(C2OC(COC(C)=O)C(OC(C)=O)C(OC(C)=O)C2OC(C)=O)C(=O)NC1c1ccccc1 (centres undefined) please.
Reply text: > 100 µM

Inquiry: Another compound to check: CC(=O)Oc1cc(Cl)c(OC(C)=O)c2c(OC(C)=O)c(C)c(O[Si](C)(C)C(C)(C)C)cc12
Reply text: 24.8 µM

Inquiry: Another compound to check: COc1c2occc2cc2ccc(=O)oc12
Reply text: > 100 µM
